Target: Bifunctional purine biosynthesis protein ATIC (Homo sapiens, UniProt P31939)
Sequence (P31939 whole entry): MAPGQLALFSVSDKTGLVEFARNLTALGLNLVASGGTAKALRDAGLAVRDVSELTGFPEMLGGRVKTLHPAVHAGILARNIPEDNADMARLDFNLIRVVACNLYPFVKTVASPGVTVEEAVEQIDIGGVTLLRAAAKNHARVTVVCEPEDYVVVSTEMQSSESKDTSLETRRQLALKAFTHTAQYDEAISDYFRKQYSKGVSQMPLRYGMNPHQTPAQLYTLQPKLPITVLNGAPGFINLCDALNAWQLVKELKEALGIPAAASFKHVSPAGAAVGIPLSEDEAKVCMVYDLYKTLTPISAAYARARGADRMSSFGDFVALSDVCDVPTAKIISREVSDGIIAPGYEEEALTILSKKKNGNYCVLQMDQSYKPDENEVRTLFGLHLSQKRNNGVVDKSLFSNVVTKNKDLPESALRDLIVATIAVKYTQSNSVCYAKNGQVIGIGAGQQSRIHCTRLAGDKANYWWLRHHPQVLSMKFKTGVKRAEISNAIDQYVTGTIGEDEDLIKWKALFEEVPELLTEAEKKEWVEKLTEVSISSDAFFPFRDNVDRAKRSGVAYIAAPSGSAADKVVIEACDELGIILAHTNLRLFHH
Assay: Inhibition of human AICAR Tfase
IC50 strictly under 10 µM means class 1; at 10 µM or over means class 0.

• Cc1cc(N)ccc1/N=N/c1cc(S(=O)(=O)O)c2cccc(S(=O)(=O)O)c2c1 = class 1
• O=S(=O)(O)c1cc(/N=[N+](\[O-])c2cc(S(=O)(=O)O)c3ccccc3c2)cc2ccccc12 = class 1
• Cc1ccc2nc(-c3ccc(NC(=O)c4ccc(N)cc4)c(S(=O)(=O)O)c3)sc2c1 = class 0
• O=C(O)c1cc(C(=O)C(=O)c2cc(C(=O)O)c(O)c3ccccc23)c2ccccc2c1O = class 1
• Cc1ccc(S(=O)(=O)Nc2cc([N+](=O)[O-])c3scnc3c2)cc1 = class 0
• Cc1ccc(S(=O)(=O)N/N=C2/C=C3CC[C@H]4[C@@H]5CC[C@H]([C@H](C)CCCC(C)C)[C@@]5(C)CC[C@@H]4[C@@]3(C)CC2)cc1 = class 1
• Cc1ccc(OS(=O)(=O)c2ccc(/N=N/c3c(C)[nH]n(-c4ccc(Cl)cc4S(=O)(=O)O)c3=O)cc2)cc1 = class 1
• Nc1cccc2cc(S(=O)(=O)Nc3ccc(C(=O)O)cc3)ccc12 = class 1
• COc1ccc(C(=O)O[C@H]2CC[C@@]3(C)[C@@H]4CC[C@H]5[C@]6(O)C[C@H](O)[C@@]7(O)[C@@H](CN8C[C@@H](C)CC[C@H]8[C@@]7(C)O)[C@]6(O)C[C@@]53O[C@]24O)cc1OC [VERATRIDINE] = class 0
• CC(=O)Nc1ccc(S(=O)(=O)Nc2cnc3ccccc3n2)cc1 = class 0
• CC1=NN(c2ccc(S(=O)(=O)O)cc2)C(=O)C1/N=N/c1ccc(S(=O)(=O)Nc2ccccc2)c(C)c1 (configuration not stated) = class 0
• O=S(=O)(O)c1ccc(/N=N/c2ccc(/N=N/c3ccc(O)c4cccc(S(=O)(=O)O)c34)cc2)cc1 = class 0
